Value source: paper PMC2860736

experimental-system: UniProt P35354
Sequence (P35354 18-604): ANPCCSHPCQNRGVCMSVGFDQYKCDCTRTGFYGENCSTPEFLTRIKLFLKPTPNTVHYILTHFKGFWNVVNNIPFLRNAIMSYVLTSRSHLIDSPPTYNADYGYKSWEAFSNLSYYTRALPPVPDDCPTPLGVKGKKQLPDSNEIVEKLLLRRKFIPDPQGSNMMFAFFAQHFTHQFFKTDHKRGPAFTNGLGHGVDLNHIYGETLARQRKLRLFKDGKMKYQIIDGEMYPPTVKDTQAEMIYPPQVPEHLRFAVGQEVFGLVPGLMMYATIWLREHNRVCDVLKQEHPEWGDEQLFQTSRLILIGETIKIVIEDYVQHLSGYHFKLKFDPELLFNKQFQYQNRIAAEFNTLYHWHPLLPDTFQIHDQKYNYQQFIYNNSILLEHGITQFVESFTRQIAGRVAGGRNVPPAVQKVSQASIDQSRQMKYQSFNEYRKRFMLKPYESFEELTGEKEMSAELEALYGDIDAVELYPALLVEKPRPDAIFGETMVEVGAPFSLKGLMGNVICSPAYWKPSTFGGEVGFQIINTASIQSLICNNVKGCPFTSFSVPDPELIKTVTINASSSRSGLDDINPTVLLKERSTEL
test-name: COX functional assay
Format: biochemical
experimental-setup: read-out: IC50 COX-2; N=3, mean ± std. dev.; listed as acetyl-β-boswellic acid
measure: IC50

# get_value(readout= IC50, system= UniProt P35354) for CC(=O)O[C@@H]1CC[C@@]2(C)[C@@H](CC[C@]3(C)[C@@H]2CC=C2[C@@H]4[C@@H](C)[C@H](C)CC[C@]4(C)CC[C@]23C)[C@@]1(C)C(=O)O ≥ 73 µM

====

List of IC50 values.
experimental-system: ovine COX-1 (Ovis aries, UniProt P05979)
Sequence (P05979 25-600): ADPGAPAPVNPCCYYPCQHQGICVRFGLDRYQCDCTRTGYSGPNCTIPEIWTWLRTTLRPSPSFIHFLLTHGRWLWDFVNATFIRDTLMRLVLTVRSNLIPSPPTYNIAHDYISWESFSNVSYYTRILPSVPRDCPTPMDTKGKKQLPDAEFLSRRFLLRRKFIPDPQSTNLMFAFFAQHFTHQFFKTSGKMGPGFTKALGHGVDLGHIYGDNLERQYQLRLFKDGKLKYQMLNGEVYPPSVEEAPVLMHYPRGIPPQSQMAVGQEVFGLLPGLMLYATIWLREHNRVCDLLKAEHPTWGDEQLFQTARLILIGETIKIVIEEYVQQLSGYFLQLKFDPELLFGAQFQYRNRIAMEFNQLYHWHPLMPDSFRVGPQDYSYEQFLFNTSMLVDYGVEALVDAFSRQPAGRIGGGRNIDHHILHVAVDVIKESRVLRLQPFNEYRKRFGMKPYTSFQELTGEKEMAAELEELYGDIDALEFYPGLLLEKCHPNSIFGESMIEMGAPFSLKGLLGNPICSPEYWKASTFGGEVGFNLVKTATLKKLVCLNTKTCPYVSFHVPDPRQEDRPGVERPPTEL
test-name: COX functional assay
Assay type: biochemical
experimental-setup: IC50 COX-1, N=3, mean ± std. dev.
Enter your answer as a number in µM; do not include the unit.

Oc1ccc(/C=C/c2cc(O)cc(O)c2)cc1 [Resveratrol, reference compound]; 0.86

Now consider a different molecule.
Endpoint output: IC50 of C=C(C)[C@@H]1CC[C@]2(C(=O)O)CC[C@]3(C)[C@H](CC[C@@H]4[C@@]5(C)CC[C@H](O)C(C)(C)[C@@H]5CC[C@]43C)[C@@H]12 . Value? 20
